Test system: KRAS patient-derived spheroids with HUVEC/MSC, viability;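 note: spheroids exposed to agents for seven days before readout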
Assay: Anticancer human tumor 941728-121-R-J1-PDC patient-derived lung adenocarcinoma cell line growth inhibition [KRAS2]
Settings: second compound 0.1 µM; first compound 10 µM; active compounds read low
Source text: Multicellular complex tumor spheroid response to RAS pathway inhibitors in combination with a targeted agents in patient-derived cell lines with oncogenic KRAS variants from multiple cancer types A high-throughput screen of multi-cell type tumor spheroids was designed to identify active combinations of targeted small molecules and KRAS pathway inhibitors. […] Compounds. […] If the clinical Cmax for an agent had not been determined, the highest concentration tested was 10 microM. […]
Listing of entries alongside the reported viability, T/C.

{"columns": ["Compound", "viability, T/C"],
 "data": [
  ["COc1cc(Nc2ncc3c(n2)-c2ccc(Cl)cc2C(c2c(F)cccc2OC)=NC3)ccc1C(=O)O + C=CC(=O)N1CCN(c2nc(=O)n(-c3c(C)ccnc3C(C)C)c3nc(-c4c(O)cccc4F)c(F)cc23)C(C)C1", "17.3%"],
  ["Cn1nccc1Nc1nccc(-c2cc3c(s2)C(C)(C)N(CCN2CCOCC2)C3=O)n1 + CNCc1ccccc1-c1csc(C(C)Nc2nc(C)nc3cc(OC)c(OC)cc23)c1", "40.7%"],
  ["COc1cc2nccc(Oc3ccc(NC(=O)C4(C(=O)Nc5ccc(F)cc5)CC4)cc3)c2cc1OC + CC1OCC2(CCN(c3cnc(Sc4ccnc(N)c4Cl)c(N)n3)CC2)C1N", "26.9%"],
  ["O=C(c1cc(Cc2n[nH]c(=O)c3ccccc23)ccc1F)N1CCN(C(=O)C2CC2)CC1 + C=CC(=O)N1CCN(c2nc(=O)n(-c3c(C)ccnc3C(C)C)c3nc(-c4c(O)cccc4F)c(F)cc23)C(C)C1", "23.8%"],
  ["COC(=O)c1ccc2c(C(=Nc3ccc(N(C)C(=O)CN4CCN(C)CC4)cc3)c3ccccc3)c(O)[nH]c2c1 + CC1OCC2(CCN(c3cnc(Sc4ccnc(N)c4Cl)c(N)n3)CC2)C1N", "38.2%"],
  ["COC(=O)c1ccc2c(C(=Nc3ccc(N(C)C(=O)CN4CCN(C)CC4)cc3)c3ccccc3)c(O)[nH]c2c1 + C=CC(=O)N1CCN(c2nc(OCC3CCCN3C)nc3c2CCN(c2cccc4cccc(C)c24)C3)CC1CC#N", "5.67%"],
  ["Cn1nccc1Nc1nccc(-c2cc3c(s2)C(C)(C)N(CCN2CCOCC2)C3=O)n1 + C=CC(=O)N1CCN(c2nc(=O)n(-c3c(C)ccnc3C(C)C)c3nc(-c4c(O)cccc4F)c(F)cc23)C(C)C1", "20.7%"],
  ["COc1cc(Nc2ncc3c(n2)-c2ccc(Cl)cc2C(c2c(F)cccc2OC)=NC3)ccc1C(=O)O + COc1cc2nc(C)nc(NC(C)c3cc(N)cc(C(F)(F)F)c3)c2cc1OC1CCOC1", "42.1%"],
  ["CC1(C)CCC(CN2CCN(c3ccc(C(=O)NS(=O)(=O)c4ccc(NCC5CCOCC5)c([N+](=O)[O-])c4)c(Oc4cnc5[nH]ccc5c4)c3)CC2)=C(c2ccc(Cl)cc2)C1 + C=CC(=O)N1CCN(c2nc(=O)n(-c3c(C)ccnc3C(C)C)c3nc(-c4c(O)cccc4F)c(F)cc23)C(C)C1", "2.7%"],
  ["COc1cc(Nc2ncc3c(n2)-c2ccc(Cl)cc2C(c2c(F)cccc2OC)=NC3)ccc1C(=O)O + C=CC(=O)N1CCN(c2nc(OCC3CCCN3C)nc3c2CCN(c2cccc4cccc(C)c24)C3)CC1CC#N", "20.9%"]
]}
